Each recorded value in this set is attributed to the supplement of paper PMC7411054.

Tested on: A549-GM130-SQSTM1
measurementDescription: lowest phenotypically active concentration; higher = less potent
measurementParameters: treatment time: 24 h
# maps each entry to its lowest phenotypically active concentration
The reply should be a number in µM, with the unit left off.

Can you share its lowest phenotypically active concentration? I mean this compound: "Cc1ccc(NC(=O)CCCCCC(=O)Nc2ccccc2N)cc1"
1

Input CC1=C(C(=O)Nc2cc3cn[nH]c3cc2F)C(c2ccc(C(F)(F)F)cc2)CC(=O)N1 (centres undefined)
1

// repeat for CN(C)C(=O)C(CCN1CCC(O)(c2ccc(Cl)cc2)CC1)(c1ccccc1)c1ccccc1 [loperamide] and report
9

====

System: A549-TP53BP1-CLTA
measurementDescription: phenotypically active (imaging signature differs from DMSO and reproducible) at any of 0.3-9 uM (binary (1 = active, 0 = inactive)); higher = active
measurementParameters: treatment time: 24 h
Structures can show the parent of a compound that is named as a salt.
Outcome field: choose from true (1) = active, false (0) = inactive

CC1(C)CC(=O)c2c(S(C)(=O)=O)sc(Cl)c2C1	false (0)

Lab log entry: CN1C(=O)CC(c2ccccc2)C1=O (centres undefined) [phensuximide] — outcome as called in the assay?
false (0)

Queued: "COc1ccccc1C(=O)Nc1cc2c(cc1N1CCCC1)n(C)c(=O)n2C"
false (0)

Check "CCN(c1ccccc1)c1cc(NC)[n+](C)c(C)n1" too.
false (0)

Similarly, O=C([C@H](Cc1cccc(C(F)(F)F)c1)NS(=O)(=O)c1cc(F)c2c(c1)CCNC2)N1CCCC1 [(S)-PFI 2 hydrochloride] ?
false (0)

Continue with Cc1occc(=O)c1O [3-hydroxy-2-methyl-4-pyrone]
false (0)

Consider next the compound NS(=O)(=O)c1cc2c(cc1Cl)NC(C(Cl)Cl)NS2(=O)=O (centres undefined) [trichlormethiazide] in the same way.
false (0)

# repeat for CC1(C)O[C@@H]2C[C@H]3[C@@H]4C[C@H](F)C5=CC(=O)CC[C@]5(C)[C@H]4[C@@H](O)C[C@]3(C)[C@]2(C(=O)CO)O1 [flurandrenolide]
true (1)

Now consider C[C@@H]1O[C@@H](O[C@H]2C(=O)c3c(O)cc(O)cc3O[C@@H]2c2ccc(O)c(O)c2)[C@H](O)[C@H](O)[C@H]1O [Astilbin] and answer again.
false (0)

Field entry: OC[C@H]1O[C@@H](Oc2ccc(O)cc2)[C@H](O)[C@@H](O)[C@@H]1O [Arbutin]
false (0)

Would you kindly repeat that for CC(=O)N1CCN(c2ccc(OC[C@H]3CO[C@](Cn4ccnc4)(c4ccc(Cl)cc4Cl)O3)cc2)CC1 [Ketoconazole] ?
false (0)

And what about the compound C=CC(=O)Nc1cccc(CN2C(=O)N(c3c(Cl)c(OC)cc(OC)c3Cl)Cc3cnc(NCCCCN(CC)CC)nc32)c1 [FIIN 1 hydrochloride] ?
true (1)

Can you handle "CN1C/C(=C/c2ccc(B(O)O)cc2)C(=O)/C(=C/c2ccc(B(O)O)cc2)C1" next?
true (1)
